Biological target: Trace amine-associated receptor 1 (Homo sapiens, UniProt Q96RJ0);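 also: inhibition of calcium response to PEA at EC80 in Galpha16 coupled cells measured by Fluo-8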
Sequence (Q96RJ0 whole entry): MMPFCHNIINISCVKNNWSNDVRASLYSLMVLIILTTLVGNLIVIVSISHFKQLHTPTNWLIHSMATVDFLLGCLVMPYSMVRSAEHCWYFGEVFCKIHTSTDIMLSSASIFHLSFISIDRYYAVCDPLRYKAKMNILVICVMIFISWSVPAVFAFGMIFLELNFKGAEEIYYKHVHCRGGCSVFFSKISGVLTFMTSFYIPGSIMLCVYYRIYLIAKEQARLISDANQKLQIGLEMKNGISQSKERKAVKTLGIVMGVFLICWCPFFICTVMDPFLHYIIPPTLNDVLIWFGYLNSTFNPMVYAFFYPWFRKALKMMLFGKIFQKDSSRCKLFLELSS
Assay: Counterscreen for agonists of the human trace amine associated receptor 1 (hTAAR1): Fluorescence-based cell-based high throughput dose response assay to identify hTAAR1 agonist that also desensitize TAAR1 receptor response.
Type: functional
Counter-ions that a name gives are not always drawn. The source made the active and inactive calls.
Outcomes: YES (active), NO (inactive)

>>> df
                                   compound  class_assignment
0  N[C@@H]1C[C@H]1c1ccccc1 [TRANYLCYPROMINE HYDROCHLORIDE]               YES
1  CCOc1cccc(-c2c(C(=O)N/N=C/c3ccc(C)o3)nnn2-c2nonc2N)c1                NO
2       CNCC(C)c1ccccc1 (centres undefined)               YES
3                O=C(Nc1ccncc1)Nc1ccc(F)cc1               YES

----------
Target: Streptokinase A (Streptococcus pyogenes serotype M1, UniProt P10520)
Assay: viability-normalized secreted streptokinase activity reduction – plasminogen activation absorbance, OD405, dose response (AID 1914);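 also: secreted streptokinase activity via plasminogen activation per viability signal from cell pellet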
Format: functional, Streptococcus pyogenes M1 GAS
Activity calls are given as the source filed them.
PROPERTY MEASURED: EC50

In [3]: df
Out[3]:
                         chemical_structure                             target_entity  property_measured         endpoint_value
0  Cc1cc(NC(=O)CC2CCCC2)n(-c2nc3ccccc3[nH]2)n1  Streptokinase A (Streptococcus pyogenes serotype M1, UniProt P10520)               EC50  > 150 µM (not active)
1     Cc1cccc(Cc2cnc(NC(=O)c3ccc(C)o3)s2)c1  Streptokinase A (Streptococcus pyogenes serotype M1, UniProt P10520)               EC50  > 150 µM (not active)
2  Cc1cc(C)c[n+](C2=C([N-]S(=O)(=O)c3cccs3)C(=O)c3ccccc3C2=O)c1  Streptokinase A (Streptococcus pyogenes serotype M1, UniProt P10520)               EC50  > 150 µM (not active)
3  C=CCn1c(N)c(C(=O)Nc2cccc(C)c2)c2nc3ccccc3nc21  Streptokinase A (Streptococcus pyogenes serotype M1, UniProt P10520)               EC50  > 150 µM (not active)
4    Sc1nc(-c2ccccc2)cn1/N=C/c1cccc2ccccc12  Streptokinase A (Streptococcus pyogenes serotype M1, UniProt P10520)               EC50  > 150 µM (not active)
5  c1ccc(-c2oc3ncnc(NCCCn4ccnc4)c3c2-c2ccccc2)cc1  Streptokinase A (Streptococcus pyogenes serotype M1, UniProt P10520)               EC50  > 150 µM (not active)
6  Cc1cc(C)c(-c2cc(NC(=O)COC(=O)c3ccc(CO)cc3)n(-c3ccccc3)n2)cc1C  Streptokinase A (Streptococcus pyogenes serotype M1, UniProt P10520)               EC50       48.4 µM (active)
7  CC(C)(C)OC(=O)N1CCC(c2cc(O)n3ncc(C(=O)Nc4ccc(F)c(Cl)c4)c3n2)CC1  Streptokinase A (Streptococcus pyogenes serotype M1, UniProt P10520)               EC50  > 150 µM (not active)
8  COc1ccc2cc(C(=O)NCc3ccccc3)/c(=N/c3ccc(C(=O)O)cc3)oc2c1  Streptokinase A (Streptococcus pyogenes serotype M1, UniProt P10520)               EC50  > 150 µM (not active)
9  CCCCCCCCCCC[N+](C)(C)CC/C=C1/c2ccccc2Sc2ccc(Cl)cc21  Streptokinase A (Streptococcus pyogenes serotype M1, UniProt P10520)               EC50       8.22 µM (active)

----------
Target: ORF 73 (Human herpesvirus 8, UniProt O40947)
Sequence (O40947 whole entry): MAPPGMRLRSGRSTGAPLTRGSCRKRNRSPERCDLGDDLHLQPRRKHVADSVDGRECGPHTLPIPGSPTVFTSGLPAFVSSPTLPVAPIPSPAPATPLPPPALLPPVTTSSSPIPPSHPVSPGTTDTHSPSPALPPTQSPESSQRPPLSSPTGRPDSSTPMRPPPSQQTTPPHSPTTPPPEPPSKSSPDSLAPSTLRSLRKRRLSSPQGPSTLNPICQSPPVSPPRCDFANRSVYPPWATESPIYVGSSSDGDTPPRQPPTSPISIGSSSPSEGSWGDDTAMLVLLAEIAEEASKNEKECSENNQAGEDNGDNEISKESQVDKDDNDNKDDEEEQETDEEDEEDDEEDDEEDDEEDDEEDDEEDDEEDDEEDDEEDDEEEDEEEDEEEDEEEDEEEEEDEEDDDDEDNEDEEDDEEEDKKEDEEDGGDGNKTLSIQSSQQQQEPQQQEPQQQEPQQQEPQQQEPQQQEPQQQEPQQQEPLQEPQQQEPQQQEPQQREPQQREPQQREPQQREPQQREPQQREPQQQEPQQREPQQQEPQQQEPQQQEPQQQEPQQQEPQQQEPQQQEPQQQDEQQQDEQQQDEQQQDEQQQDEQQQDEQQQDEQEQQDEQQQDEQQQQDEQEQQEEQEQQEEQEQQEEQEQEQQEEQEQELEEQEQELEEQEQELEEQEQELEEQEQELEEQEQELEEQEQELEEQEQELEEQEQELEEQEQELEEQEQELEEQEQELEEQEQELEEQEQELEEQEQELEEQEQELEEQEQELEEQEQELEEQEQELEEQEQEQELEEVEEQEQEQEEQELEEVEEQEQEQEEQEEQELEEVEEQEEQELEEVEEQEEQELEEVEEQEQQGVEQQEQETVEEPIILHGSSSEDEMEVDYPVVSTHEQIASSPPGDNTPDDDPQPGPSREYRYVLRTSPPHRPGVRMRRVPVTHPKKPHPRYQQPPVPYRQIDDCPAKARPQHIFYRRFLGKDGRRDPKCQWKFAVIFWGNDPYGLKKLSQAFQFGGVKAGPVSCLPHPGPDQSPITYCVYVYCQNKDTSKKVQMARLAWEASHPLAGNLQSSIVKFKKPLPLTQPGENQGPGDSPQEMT
Assay: KSHV LANA DNA-binding disruption – biochemical, fluorescence polarization, cherry-picked samples, dose response (AID 504725);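 also: fluorescence polarization of a labeled DNA duplex reporting LANA DNA binding; potency is for inhibitors that block LANA binding to the DNA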
Set-up: species or system Human gammaherpesvirus 8
Counter-ions that a name gives are not always drawn. The source made the active and inactive calls.
# maps each entry to its AC50

MOLECULE	AC50
COc1cccc2c1C(=O)c1c(O)c3c(c(O)c1C2=O)C[C@@](O)(C(=O)CO)C[C@@H]3O[C@H]1C[C@H](N)[C@H](O)[C@H](C)O1 [DOXORUBICIN HYDROCHLORIDE]	1.46 µM (active)
COc1ccc(NC(=O)NS(=O)(=O)c2ccc(C)cc2)cn1	87.5 µM (active)
Nc1cccc2c(O)cc(S(=O)(=O)O)cc12	29.7 µM (active)
CC(C)(C)n1nnnc1C(c1cccnc1)N(Cc1ccccc1)Cc1ccco1 (centres undefined)	0.592 µM (active)

----------
# maps each entry to its AC50
Biological target: Cytochrome P450 2D6 (Homo sapiens);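 also: CYP2D6 member of a cytochrome P450 panel assay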
PROPERTY MEASURED: AC50

>>> df
                                   compound          endpoint_value
0  COC(=O)[C@@]1(Cc2ccc(OC)cc2)[C@H]2c3cc(C(=O)N(C)C)n(Cc4ccc(C)o4)c3C[C@H]2CN1C(=O)c1ccccc1  39.8 µM (inconclusive)
1              c1cc(CN2CCCC3(CCNCC3)C2)ccn1  25.1 µM (inconclusive)
2  CC(C)(C)n1nnnc1C(c1cccnc1)N(Cc1ccccc1)Cc1ccco1 (stereo not given)  31.6 µM (inconclusive)
3  C[C@]1(CC(=O)O)O[C@H]2CCCCC[C@H]2O1.NCc1ccccc1  3.16 µM (inconclusive)
4  O=C(C1CCC(=O)N1Cc1ccccc1Cl)N1CCN(c2cccc(Cl)c2)CC1 (stereo not given)  14.1 µM (inconclusive)

----------
Test system: SN12K1
Assay: cells
Type: functional
Conditions: Homo sapiens
The source made the active and inactive calls.
Outcomes: active, inactive

>>> df
                                   compound  class_assignment
0    Nc1cc2[nH]cnc2c(=O)[nH]1 [DEZAGUANINE]          inactive
1  COC1=C(C)C(=O)C2=C(C1=O)C1C3CC4=C(C(=O)C(OC)=C(C)C4=O)C(CNC(=O)C(C)=O)N3C(C#N)C(C2)N1C (centres undefined)            active
2  COc1cc(Cc2nccc3cc(OC)c(OC)cc23)c(C(C)=O)cc1OC          inactive
3  C=C1C(=O)O[C@@H]2[C@H]3O[C@]3(C)CCC=C(C)CC[C@@H]12          inactive
